- Tested on: Escherichia coli AG100, AG112 and derived fluoroquinolone-resistant mutants with ΔacrAB
- assay_remarks: MIC by broth microdilution, AcrAB-deleted strains
- Format: cell-based
- condition_info: Escherichia coli, strain 2-AG100 (2°-AG100), ΔacrAB
property: MIC

Exercise: Any idea what its MIC is? The molecule is CN(C)[C@@H]1C(O)=C(C(N)=O)C(=O)[C@@]2(O)C(O)=C3C(=O)c4c(O)cccc4[C@@](C)(O)[C@H]3C[C@@H]12 [TET, tetracycline]
Solution: 0.5 µg/mL

Exercise: Any idea what its MIC is? The molecule is CO[C@@]1(NC(=O)Cc2cccs2)C(=O)N2C(C(=O)O)=C(COC(N)=O)CS[C@@H]21 [CFOX, cefoxitin]
Solution: 0.5 µg/mL

Exercise: Any idea what its MIC is? The molecule is CC1COc2c(N3CCN(C)CC3)c(F)cc3c(=O)c(C(=O)O)cn1c23 (stereo not shown) [OFL, ofloxacin]
Solution: 0.06 µg/mL

Exercise: Any idea what its MIC is? The molecule is O=C(N[C@H](CO)[C@H](O)c1ccc([N+](=O)[O-])cc1)C(Cl)Cl [CML, chloramphenicol]
Solution: 1 µg/mL

* * *

- Tested on: Escherichia coli AG100, AG112 and derived fluoroquinolone-resistant mutants with ΔacrAB
- assay_remarks: MIC by broth microdilution, AcrAB-deleted strains
- Assay type: cell-based
- condition_info: Escherichia coli, strain 2-AG112 (2′-AG112), ΔacrAB
Field: MIC. Provide a value for each of the molecules that follow.
Please respond with the number in µg/mL and leave the unit unwritten.

Exercise: Any idea what its MIC is? The molecule is N[C@@H]1[C@H]2CN(c3nc4c(cc3F)c(=O)c(C(=O)O)cn4-c3ccc(F)cc3F)C[C@@H]12
Solution: 0.06

Exercise: Any idea what its MIC is? The molecule is CN(C)[C@@H]1C(O)=C(C(N)=O)C(=O)[C@@]2(O)C(O)=C3C(=O)c4c(O)cccc4[C@@](C)(O)[C@H]3C[C@@H]12
Solution: 1

Exercise: Any idea what its MIC is? The molecule is CC1COc2c(N3CCN(C)CC3)c(F)cc3c(=O)c(C(=O)O)cn1c23 (stereo not drawn)
Solution: 0.06

* * *

Field: MIC. Provide a value for each of the compounds that follow.
- Test system: Escherichia coli AG100, AG112 and derived fluoroquinolone-resistant mutants with ΔacrAB
- assay_remarks: MIC by broth microdilution, AcrAB-deleted strains
- Assay type: cell-based
- condition_info: Escherichia coli, strain 3*-AG100, ΔacrAB
- Experimental: Susceptibility testing. […] MICs of bile salts were determined by a broth macrodilution procedure: sodium cholate and sodium deoxycholate were serially diluted twofold in LB broth and tubes inoculated at 5×10^5 CFU/ml. MICs of both antibiotics and bile salts were determined twice in independent experiments with reproducible results. […]
Please respond with the number in µg/mL and leave the unit unwritten.

Exercise: Notebook: pull reported MIC for Escherichia coli AG100, AG112 and derived fluoroquinolone-resistant mutants with ΔacrAB, entry O=C(O)c1cn(C2CC2)c2cc(N3CCNCC3)c(F)cc2c1=O [CIP, ciprofloxacin]
Solution: 0.06

Exercise: Notebook: pull reported MIC for Escherichia coli AG100, AG112 and derived fluoroquinolone-resistant mutants with ΔacrAB, entry N[C@@H]1[C@H]2CN(c3nc4c(cc3F)c(=O)c(C(=O)O)cn4-c3ccc(F)cc3F)C[C@@H]12 [TVA, trovafloxacin]
Solution: 0.06

Exercise: Notebook: pull reported MIC for Escherichia coli AG100, AG112 and derived fluoroquinolone-resistant mutants with ΔacrAB, entry CC1COc2c(N3CCN(C)CC3)c(F)cc3c(=O)c(C(=O)O)cn1c23 (stereo not drawn) [OFL, ofloxacin]
Solution: 0.06
